- measured on: T1, His-tagged P3028 (human, also: His-tag, terminus and sequence not given here)
- T1 construct: in solution at 0.5 ug/mL over the peptide cards; found with anti-His-tag antibody and rabbit anti-mouse peroxidase (rampo); also called PGE73; not shown: His-tag
- T1 peptide: VFDEFKPLVEEPQNLIK
- procedure text: PEPSCAN chip ELISA, His-P3028 in solution;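 also: score is the raw OD at 405 nm from peroxidase colour with ABTS, imaged by CCD camera before and after staining, with wells showing air bubbles set to zero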
No end group written: not given here.
The label is 1 for RAMPO Score below 500 rampo score and 0 for RAMPO Score equal to or exceeding 500 rampo score.

| binder | label class |
| --- | --- |
| KKLDHFFVKLSLFTER [SEQ ID NO 420] | 1 |
| KKLDTNFVKLSLFTER [SEQ ID NO 316] | 1 |
| KKLDTFFVKLSLSTER [SEQ ID NO 372] | 0 |
| KKLDTFFVKLSLFTLR [SEQ ID NO 525] | 1 |
| KKLDSFFVKLSLFTER [SEQ ID NO 310] | 1 |
| KDLDTFFVKLSLFTER [SEQ ID NO 461] | 1 |
| KKLDTFFIKLSLFTER [SEQ ID NO 416] | 1 |
| KKLDTFFVKLSLFTET [SEQ ID NO 392] | 1 |
| KKLDTFFVKLSLNTER [SEQ ID NO 25] | 0 |
| QKLDTFFVKLSLFTER [SEQ ID NO 278] | 1 |
| KLLDTFFVKLSLFTER [SEQ ID NO 454] | 1 |
| KKLDTFFVKLSLFTRR [SEQ ID NO 531] | 1 |
| KKLDTFFVKLTLFTER [SEQ ID NO 17] | 0 |
| KKLDTFPVKLSLFTER [SEQ ID NO 437] | 1 |
